Test system: IPOHE (Morningglory, Ivyleaf)
protocolDescription: Preemergence herbicidal evaluation
Assay type: in vivo, Ipomoea hederacea
conditionInfo: rate 0.2500 kg/ha; rated 4-5 weeks after treatment
Recorded Preemergence herbicidal rating IPOHE for the following compounds

compound | Preemergence herbicidal rating IPOHE
CCOC(=O)CCN1C(=O)CSC1=Nc1cc(-n2c(=O)cc(C(F)(F)F)n(C)c2=O)c(Cl)cc1Cl [Compound 32] | 0.0
COC(=O)CCN1C(=O)CSC1=Nc1cc(-n2c(=O)cc(C(F)(F)F)n(C)c2=O)c(F)cc1Cl [Compound 28] | 9.0
CCOC(=O)CN1C(=O)C(SC)SC1=Nc1cc(-n2c(=O)cc(C(F)(F)F)n(C)c2=O)c(F)cc1Cl (stereo not shown) [Compound 125] | 9.0
CCCCOC(=O)CN1C(=O)CSC1=Nc1cc(-n2c(=O)cc(C(F)(F)F)n(C)c2=O)c(F)cc1Cl [Compound 111] | 7.0
Cn1c(C(F)(F)F)cc(=O)n(-c2cc(N=C3SCC(=O)N3CCC(=O)O)c(Cl)cc2F)c1=O [Compound 31] | 9.0
CCOC(=O)[C@H](C)N1C(=O)CSC1=Nc1cc(-n2c(=O)cc(C(F)(F)F)n(C)c2=O)c(F)cc1Cl [Compound 76] | 9.0
Cn1c(C(F)(F)F)cc(=O)n(-c2cc(N=C3SCC(=O)N3C3CCOC3=O)c(Cl)cc2F)c1=O (stereo not shown) [Compound 73] | 7.0
CCOC(=O)C(c1ccc(Cl)cc1)N1C(=O)CSC1=Nc1cc(-n2c(=O)cc(C(F)(F)F)n(C)c2=O)c(F)cc1Cl (racemic) [Compound 79] | 1.0
C=CCN1C(=O)C(CC(=O)NS(=O)(=O)C(C)C)SC1=Nc1cc(-n2c(=O)cc(C(F)(F)F)n(C)c2=O)c(F)cc1Cl (stereo not shown) [Compound 118] | 6.0
O=C(O)CC1SC(=Nc2cc(N3C(=O)C4=C(CCCC4)C3=O)c(F)cc2Cl)N(CC(=O)O)C1=O (stereo not shown) [Compound 48] | 0.0

====

Recorded herbicidal rating ECHCG for the following compounds
Tested on: ECHCG (Barnyardgrass)
protocolDescription: Postemergence herbicidal evaluation
Type: in vivo, Echinochloa crus-galli
conditionInfo: postemergence, rate 0.0313 kg/ha
Description: In the tests, seedling plants are grown in jiffy flats for about two weeks. The test compounds are dispersed in 50/50 acetone/water mixtures containing 0.5% TWEEN®20, a polyoxyethylene sorbitan monolaurate surfactant of Atlas Chemical Industries, in sufficient quantities to provide the equivalent of about 0.0156 kg to 0.500 kg per hectare of active compound when applied to the plants through a spray nozzle operating at 40 psi for a predetermined time. […]
reportedEndpoint: herbicidal rating ECHCG

compound | reportedEndpoint | measValue
C#CC(C)N1C(=O)CSC1=Nc1cc(-n2c(=O)cc(C(F)(F)F)n(C)c2=O)c(F)cc1Cl (stereo not shown) | herbicidal rating ECHCG | 4.0
Cn1c(C(F)(F)F)cc(=O)n(-c2cc(N=C3SCC(=O)N3Cc3ccc(S(N)(=O)=O)cc3)c(Cl)cc2F)c1=O | herbicidal rating ECHCG | 2.0
Cn1c(C(F)(F)F)cc(=O)n(-c2cc(N=C3SCC(=O)N3CC(=O)OCC3CC3)c(Cl)cc2F)c1=O | herbicidal rating ECHCG | 3.0
COc1ccc(CN2C(=O)CSC2=Nc2cc(-n3c(=O)cc(C(F)(F)F)n(C)c3=O)c(F)cc2Cl)cc1OC | herbicidal rating ECHCG | 2.0

====

Test system: GALAP (Galium)
protocolDescription: Postemergence herbicidal evaluation
Assay type: in vivo, Galium aparine
conditionInfo: postemergence, rate 0.1250 kg/ha
reportedEndpoint: herbicidal rating GALAP

compound | measValue
CCS(=O)(=O)NC(=O)CC1SC(=Nc2cc(-n3c(=O)cc(C(F)(F)F)n(C)c3=O)c(F)cc2Cl)N(C)C1=O (stereo not shown) | 2.0
CCOC(=O)CN1C(=O)C(CC(=O)NS(=O)(=O)c2ccccc2)SC1=Nc1cc(-n2c(=O)cc(C(F)(F)F)n(C)c2=O)c(F)cc1Cl (stereo not shown) | 3.0
CCOC(=O)CN1C(=O)C(CC(=O)NS(=O)(=O)CC)SC1=Nc1cc(-n2c(=O)cc(C(F)(F)F)n(C)c2=O)c(F)cc1Cl (stereo not shown) | 7.0
C#CC(C)N1C(=O)CSC1=Nc1cc(-n2c(=O)cc(C(F)(F)F)n(C)c2=O)c(F)cc1Cl (stereo not shown) | 5.0

====

Recorded herbicidal rating ECHCG for the following compounds
System: ECHCG (Barnyardgrass)
protocolDescription: Postemergence herbicidal evaluation
Assay type: in vivo, Echinochloa crus-galli
conditionInfo: postemergence, rate 0.0625 kg/ha

compound | herbicidal rating ECHCG
Cn1c(C(F)(F)F)cc(=O)n(-c2cc(N=C3SCC(=O)N3Cc3ccccc3Cl)c(Cl)cc2F)c1=O [Compound 143] | 1.0
CCOC(=O)CN1C(=O)C(Cl)SC1=Nc1cc(-n2c(=O)cc(C(F)(F)F)n(C)c2=O)c(F)cc1Cl (stereo not shown) [Compound 126] | 0.0
Cc1ccc(CN2C(=O)CSC2=Nc2cc(-n3c(=O)cc(C(F)(F)F)n(C)c3=O)c(F)cc2Cl)cc1C [Compound 147] | 1.0
CCCN1C(=O)CSC1=Nc1cc(-n2c(=O)cc(C(F)(F)F)n(C)c2=O)c(F)cc1Cl [Compound 171] | 3.0
Cc1cccc(CN2C(=O)CSC2=Nc2cc(-n3c(=O)cc(C(F)(F)F)n(C)c3=O)c(F)cc2Cl)c1 [Compound 130] | 3.0
CCOC(=O)CN1C(=O)C(SC)SC1=Nc1cc(-n2c(=O)cc(C(F)(F)F)n(C)c2=O)c(F)cc1Cl (stereo not shown) [Compound 125] | 3.0
Cn1c(C(F)(F)F)cc(=O)n(-c2cc(N=C3SCC(=O)N3Cc3ccc(Cl)cc3)c(Cl)cc2F)c1=O [Compound 145] | 3.0

====

Recorded herbicidal rating SETVI for the following compounds
Test system: SETVI (Foxtail, Green)
protocolDescription: Postemergence herbicidal evaluation
Format: in vivo, Setaria viridis
conditionInfo: postemergence, rate 0.0625 kg/ha

compound | herbicidal rating SETVI
COCCN1C(=O)CSC1=Nc1cc(-n2c(=O)cc(C(F)(F)F)n(C)c2=O)c(F)cc1Cl | 0.0
Cn1c(C(F)(F)F)cc(=O)n(-c2cc(N=C3SCC(=O)N3Cc3cccc(C(F)(F)F)c3)c(Cl)cc2F)c1=O | 3.0
CCOC(=O)CN1C(=O)C(SC)SC1=Nc1cc(-n2c(=O)cc(C(F)(F)F)n(C)c2=O)c(F)cc1Cl (stereo not drawn) | 5.0
CCOC(=O)CN1C(=O)C(CC(=O)NS(=O)(=O)c2ccccc2)SC1=Nc1cc(-n2c(=O)cc(C(F)(F)F)n(C)c2=O)c(F)cc1Cl (stereo not drawn) | 6.0
Cn1c(C(F)(F)F)cc(=O)n(-c2cc(N=C3SCC(=O)N3Cc3ccc(Br)cc3)c(Cl)cc2F)c1=O | 4.0
Cn1c(C(F)(F)F)cc(=O)n(-c2cc(N=C3SCC(=O)N3Cc3ccc(Cl)cc3)c(Cl)cc2F)c1=O | 5.0

====

Recorded Herbicidal rating CYPIR for the following compounds
System: CYPIR (Rice Flatsedge)
protocolDescription: Preemergence weed control under flooded paddy conditions
Type: in vivo, Cyperus iria
conditionInfo: 0.0625 kg/ha, rated 3-4 weeks after treatment

compound | experimentalTarget | Herbicidal rating CYPIR
CC1SC(=Nc2cc(N3C(=O)C4=C(CCCC4)C3=O)c(F)cc2Cl)N(C)C1=O (stereo not shown) | CYPIR (Rice Flatsedge) | 4.0
CCOC(=O)CN1C(=O)C(Cc2ccccc2OC(C)C(=O)OC)SC1=Nc1cc(-n2c(=O)cc(C(F)(F)F)n(C)c2=O)c(F)cc1Cl (stereo not shown) | CYPIR (Rice Flatsedge) | 0.0
CCOC(=O)CN1C(=O)C(CC(=O)NC)SC1=Nc1cc(-n2c(=O)cc(C(F)(F)F)n(C)c2=O)c(F)cc1Cl (stereo not shown) | CYPIR (Rice Flatsedge) | 9.0
CC1SC(=Nc2cc(-n3c(=O)cc(C(F)(F)F)n(C)c3=O)c(F)cc2Cl)N(C)C1=O (stereo not shown) | CYPIR (Rice Flatsedge) | 2.0
CCOC(=O)CN1C(=O)C(F)SC1=Nc1cc(-n2c(=O)cc(C(F)(F)F)n(C)c2=O)c(F)cc1Cl (stereo not shown) | CYPIR (Rice Flatsedge) | 0.0
Cn1c(C(F)(F)F)cc(=O)n(-c2cc(N=C3SCC(=O)N3[C@@H](Cc3ccccc3)C(=O)O)c(Cl)cc2F)c1=O | CYPIR (Rice Flatsedge) | 2.0
CCOC(=O)CN1C(=O)C[S+]([O-])/C1=N/c1cc(-n2c(=O)cc(C(F)(F)F)n(C)c2=O)c(F)cc1Cl (stereo not shown) | CYPIR (Rice Flatsedge) | 3.0
CCOC(=O)CN1C(=O)CSC1=Nc1cc(N2C(=O)C3=C(CCCC3)C2=O)c(F)cc1Cl | CYPIR (Rice Flatsedge) | 0.0
Cn1c(C(F)(F)F)cc(=O)n(-c2cc(N=C3SCC(=O)N3CCC(=O)O)c(Cl)cc2F)c1=O | CYPIR (Rice Flatsedge) | 0.0
CCOC(=O)CN1C(=O)C(CC(=O)OCc2ccccc2)OC1=Nc1cc(-n2c(=O)cc(C(F)(F)F)n(C)c2=O)c(F)cc1Cl (stereo not shown) | CYPIR (Rice Flatsedge) | 0.0
